Target: récepteur chimère Gal-PPARγ (LBD) (Homo sapiens, UniProt P37231)
Construct: le récepteur chimère Gal-PPARγ (LBD); Gal (fusion partner); expressed in transfected cells; host or cells: HeLa cells, stably transfected
Sequence (P37231 238-503 limits assumed): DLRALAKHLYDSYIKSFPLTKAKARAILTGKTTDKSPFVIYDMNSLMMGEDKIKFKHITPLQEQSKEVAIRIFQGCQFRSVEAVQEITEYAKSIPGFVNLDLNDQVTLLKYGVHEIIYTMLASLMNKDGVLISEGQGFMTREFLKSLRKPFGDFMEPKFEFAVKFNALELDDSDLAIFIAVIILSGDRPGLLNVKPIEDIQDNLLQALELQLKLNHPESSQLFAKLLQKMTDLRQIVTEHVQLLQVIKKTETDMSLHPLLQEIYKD
Test: Transactivation test, Hela cells stably transfected with chimeric receptor Gal-PPARγ (LBD), luciferase readout
Type: cell-based
Conditions: M-HeLa, 24 h, compound at 1 microM, percent of activation relative to reference agonist at 1 µM, read-out: % d'activation (à 1 microM) PPARγ
Property name: activation at 1 µM (%)

[[record]]
compound = "CN(Cc1cccc(-c2ccc(CC3SC(=O)NC3=O)cc2)c1)C(=O)C12CC3CC(CC(C3)C1)C2 (stereo not shown)"
measurement_target = "récepteur chimère Gal-PPARγ (LBD) (Homo sapiens, UniProt P37231)"
result_value = 106

[[record]]
compound = "CN(C(=O)Nc1ccc2ccccc2c1)c1cccc(-c2ccc(CC3SC(=O)NC3=O)cc2)c1 (stereo not shown)"
measurement_target = "récepteur chimère Gal-PPARγ (LBD) (Homo sapiens, UniProt P37231)"
result_value = 104

[[record]]
compound = "CN(Cc1cccc(-c2ccc(CC3SC(=O)NC3=O)cc2)c1)C(=O)c1ccc(N(C)C)c2ccccc12 (stereo not shown)"
measurement_target = "récepteur chimère Gal-PPARγ (LBD) (Homo sapiens, UniProt P37231)"
result_value = 112

[[record]]
compound = "CCO[C@@H](Cc1ccc(-c2cccc(CN(C)C(=O)c3ccc4cc(OCOCCOC)ccc4c3)c2)cc1)C(=O)O"
measurement_target = "récepteur chimère Gal-PPARγ (LBD) (Homo sapiens, UniProt P37231)"
result_value = 90

[[record]]
compound = "CN(Cc1cccc(-c2ccc(CC3SC(=O)NC3=O)cc2)c1)C(=O)c1ccc(C(=O)c2ccccc2)cc1 (stereo not shown)"
measurement_target = "récepteur chimère Gal-PPARγ (LBD) (Homo sapiens, UniProt P37231)"
result_value = 102

[[record]]
compound = "CN(Cc1cccc(-c2ccc(CC3SC(=O)NC3=O)cc2)c1)C(=O)COc1ccccc1 (stereo not shown)"
measurement_target = "récepteur chimère Gal-PPARγ (LBD) (Homo sapiens, UniProt P37231)"
result_value = 97.2

[[record]]
compound = "CSc1ccc(C(=O)N(C)Cc2cccc(-c3ccc(CC4SC(=O)NC4=O)cc3)c2)cc1 (stereo not shown)"
measurement_target = "récepteur chimère Gal-PPARγ (LBD) (Homo sapiens, UniProt P37231)"
result_value = 90.7


* * *

Target: récepteur chimère Gal-PPARα (Homo sapiens)
Assay: Transactivation test, same protocol with chimeric receptor Gal-PPARα
Type: cell-based
Settings: 24 h; compound at 1 microM; percent of activation relative to reference agonist (Wy 14643 = 100%); Hela cells; read-out: % d'activation (à 1 microM) PPARα
Property name: activation at 1 µM (%)

[[record]]
compound = "CN(C(=O)Nc1ccc2ccccc2c1)c1cccc(-c2ccc(CC3SC(=O)NC3=O)cc2)c1 (stereo not shown)"
measurement_target = "récepteur chimère Gal-PPARα (Homo sapiens)"
unit_abbrev = "%"
result_value = -4.2


A. CN(C)c1ccc(NC(=O)N(C)c2cccc(-c3ccc(CC4SC(=O)NC4=O)cc3)c2)cc1 (stereo not shown)
B. CN(Cc1cccc(-c2ccc(CC3SC(=O)NC3=O)cc2)c1)C(=O)CCCCC(=O)c1ccccc1 (stereo not shown)
C. CCO[C@@H](Cc1ccc(-c2cccc(CN(C)C(=O)c3ccc(-c4ccccc4)cc3)c2)cc1)C(=O)O
Please list these compounds in decreasing order of activation at 1 µM. Order the labels as requested and give them as your answer.
C, B, A
(C: 100%, B: 12.3%, A: -3.9%)

* * *

Biological target: récepteur chimère Gal-PPARγ (LBD) (Homo sapiens)
Construct: le récepteur chimère Gal-PPARγ (LBD); Gal (fusion partner); expressed in transfected cells; host or cells: HeLa cells, stably transfected
Test: Transactivation test, Hela cells stably transfected with chimeric receptor Gal-PPARγ (LBD), luciferase readout
Assay type: cell-based
Settings: M-HeLa, 24 h, compound at 1 microM, percent of activation relative to reference agonist at 1 µM, read-out: % d'activation (à 1 microM) PPARγ
Property name: activation at 1 µM (%)

Illustrative cases are given below, each with its answer.
[[record]]
molecule = "CN(Cc1cccc(-c2ccc(CC3SC(=O)NC3=O)cc2)c1)C(=O)CCCCC(=O)c1ccccc1 (stereo not shown)"
measurement_target = "récepteur chimère Gal-PPARγ (LBD) (Homo sapiens)"
result_value = 168

[[record]]
molecule = "CCO[C@@H](Cc1ccc(-c2cccc(CN(C)C(=O)c3ccc(-c4ccccc4)cc3)c2)cc1)C(=O)O"
measurement_target = "récepteur chimère Gal-PPARγ (LBD) (Homo sapiens)"
result_value = 102

[[record]]
molecule = "CN(Cc1cccc(-c2ccc(CC3SC(=O)NC3=O)cc2)c1)C(=O)c1ccc2cc(O)ccc2c1 (stereo not shown)"
measurement_target = "récepteur chimère Gal-PPARγ (LBD) (Homo sapiens)"
result_value = 96.1

[[record]]
molecule = "CN(Cc1cccc(-c2ccc(CC3SC(=O)NC3=O)cc2)c1)C(=O)c1cc2ccccc2s1 (stereo not shown)"
measurement_target = "récepteur chimère Gal-PPARγ (LBD) (Homo sapiens)"
result_value = 90.1

[[record]]
molecule = "CN(Cc1cccc(-c2ccc(CC3SC(=O)NC3=O)cc2)c1)C(=O)c1ccc(S(C)(=O)=O)cc1 (stereo not shown)"
measurement_target = "récepteur chimère Gal-PPARγ (LBD) (Homo sapiens)"
result_value = 76.7

[[record]]
molecule = "CN(C)c1ccc(NC(=O)N(C)c2cccc(-c3ccc(CC4SC(=O)NC4=O)cc3)c2)cc1 (stereo not shown)"
measurement_target = "récepteur chimère Gal-PPARγ (LBD) (Homo sapiens)"
result_value = 108

[[record]]
molecule = "CCO[C@@H](Cc1ccc(-c2cccc(CN(C)C(=O)CCCCC(=O)c3ccccc3)c2)cc1)C(=O)O"
measurement_target = "récepteur chimère Gal-PPARγ (LBD) (Homo sapiens)"
result_value = 114

[[record]]
molecule = "COCCOCOc1ccc2cc(C(=O)N(C)Cc3cccc(-c4ccc(CC5SC(=O)NC5=O)cc4)c3)ccc2c1 (stereo not shown)"
measurement_target = "récepteur chimère Gal-PPARγ (LBD) (Homo sapiens)"
result_value = 93.3


P. CN(Cc1cccc(-c2ccc(CC3SC(=O)NC3=O)cc2)c1)C(=O)c1cccn1C (stereo not shown)
Q. CN(Cc1cccc(-c2ccc(CC3SC(=O)NC3=O)cc2)c1)C(=O)c1ccc(-c2ccccc2)cc1 (stereo not shown)
Parameter metric = activation at 1 µM. Return the lower-valued option from P and Q . Write down the label attached to your selection.
P

* * *

Target: récepteur chimère Gal-PPARα (Homo sapiens)
Test: Transactivation test, same protocol with chimeric receptor Gal-PPARα
Assay type: cell-based
Details: 24 h; compound at 1 microM; percent of activation relative to reference agonist (Wy 14643 = 100%); Hela cells; read-out: % d'activation (à 1 microM) PPARα
Property name: activation at 1 µM (%)

[[record]]
molecule = "CN(Cc1cccc(-c2ccc(CC3SC(=O)NC3=O)cc2)c1)C(=O)CCC1CCCC1 (stereo not shown) [Composé de l'exemple 4]"
property_name = "activation at 1 µM"
result_value = 39.8

[[record]]
molecule = "CN(Cc1cccc(-c2ccc(CC3SC(=O)NC3=O)cc2)c1)C(=O)c1ccc(N(C)C)c2ccccc12 (stereo not shown) [Composé de l'exemple 13]"
property_name = "activation at 1 µM"
result_value = 13.4

[[record]]
molecule = "CN(Cc1cccc(-c2ccc(CC3SC(=O)NC3=O)cc2)c1)C(=O)c1cc2ccccc2s1 (stereo not shown) [Composé de l'exemple 11]"
property_name = "activation at 1 µM"
result_value = 13.2


a. CN(Cc1cccc(-c2ccc(CC3SC(=O)NC3=O)cc2)c1)C(=O)c1cccn1C (stereo not shown) [Composé de l'exemple 8]
b. CN(Cc1cccc(-c2ccc(CC3SC(=O)NC3=O)cc2)c1)C(=O)c1ccc(-c2ccccc2)cc1 (stereo not shown) [Composé de l'exemple 10]
Parameter metric = activation at 1 µM. Return the lower-valued option from a and b . Write down the label attached to your selection.
b

a. CN(Cc1cccc(-c2ccc(CC3SC(=O)NC3=O)cc2)c1)C(=O)c1ccc(C(=O)c2ccccc2)cc1 (stereo not shown) [Composé de l'exemple 15]
b. CN(Cc1cccc(-c2ccc(CC3SC(=O)NC3=O)cc2)c1)C(=O)c1ccc(S(C)(=O)=O)cc1 (stereo not shown) [Composé de l'exemple 14]
Parameter metric = activation at 1 µM. Return the lower-valued option from a and b . Write down the label attached to your selection.
b
(b: 19%, a: 28.8%)

* * *

Molecular target: récepteur chimère Gal-PPARα (Homo sapiens, UniProt Q07869)
Sequence (Q07869 167-468): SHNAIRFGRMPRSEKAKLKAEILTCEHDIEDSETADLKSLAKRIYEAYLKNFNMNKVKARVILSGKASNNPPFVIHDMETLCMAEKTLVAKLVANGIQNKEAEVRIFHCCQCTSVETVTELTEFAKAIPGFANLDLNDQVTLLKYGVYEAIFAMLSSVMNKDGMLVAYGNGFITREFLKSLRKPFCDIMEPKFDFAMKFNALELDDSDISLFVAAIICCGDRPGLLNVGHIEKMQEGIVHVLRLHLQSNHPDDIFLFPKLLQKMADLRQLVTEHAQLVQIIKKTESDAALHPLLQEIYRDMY
Assay: Transactivation test, same protocol with chimeric receptor Gal-PPARα
Assay type: cell-based
Settings: 24 h; compound at 1 microM; percent of activation relative to reference agonist (Wy 14643 = 100%); Hela cells; read-out: % d'activation (à 1 microM) PPARα
Source text: De préférence, l'activateur des récepteurs de type PPARγ est spécifique, c'est à dire qu'il présente un rapport du pourcentage d'activation des récepteurs PPARγ, au pourcentage d'activation des récepteurs PPARα (calculé par rapport à un composé de référence, le Wy 14643, activant les PPARα de 100%) supérieur ou égal à 3. De préférence, ce rapport est supérieur ou égal à 5 et plus avantageusement supérieur ou égal à 10. […]
Property name: activation at 1 µM (%)

[[record]]
compound = "CN(Cc1cccc(-c2ccc(CC3SC(=O)NC3=O)cc2)c1)C(=O)c1cccc2ccccc12 (centres unmarked)"
property_name = "activation at 1 µM"
result_value = 26.6

[[record]]
compound = "COC(=O)CCCCCCCCC(=O)N(C)Cc1cccc(-c2ccc(CC3SC(=O)NC3=O)cc2)c1 (centres unmarked)"
property_name = "activation at 1 µM"
result_value = 13.7

[[record]]
compound = "CCO[C@@H](Cc1ccc(-c2cccc(CN(C)C(=O)CCCCC(=O)c3ccccc3)c2)cc1)C(=O)O"
property_name = "activation at 1 µM"
result_value = 41.9


1. COCCOCOc1ccc2cc(C(=O)N(C)Cc3cccc(-c4ccc(CC5SC(=O)NC5=O)cc4)c3)ccc2c1 (centres unmarked)
2. CN(Cc1cccc(-c2ccc(CC3SC(=O)NC3=O)cc2)c1)C(=O)c1ccc2ccccc2c1 (centres unmarked)
Parameter metric = activation at 1 µM. Return the lower-valued option from 1 and 2 . Write down the label attached to your selection.
2
(2: 7.9%, 1: 22.9%)
